Source listed as patent US20260297129A1.

EXPERIMENTAL DETAILS: Protease stability in simulated intestinal fluids (FaSSIF) (Table 7)
Format: in vitro ADME
CONDITION: fassif with pancreatin, 120 min, 37° C., read-out: Remaining percentage of peptide compound, FaSSIF 120 (min)
Protocol: Studies were carried out in simulated intestinal fluid (SIF) and simulated gastric fluid (SGF) to evaluate gastric stability of the peptide compounds disclosed herein. […] To 76 μL of the Pepsin-SGF buffer, 4 μL of the 20 μM peptide stock solution was added and incubated at 37° C. […] The samples were centrifuged for 20 minutes and an aliquot of the supernatant 100 μL were transferred to a LoBind-MTP plate and analyzed by LCMS/MS. […]
Bridge positions count the residues as written; N and C are the ends. Square brackets hold non-standard residues; d marks the D form. Peptide text beside a SMILES is read from it. * marks the point of attachment. Trp(7-Me) = Cc1cccc2c(C[C@H](N)C(=O)O)c[nH]c12; αMeLys(Me2) = CN(C)CCCC[C@](C)(N)C(=O)O; 2Nal = N[C@@H](Cc1ccc2ccccc2c1)C(=O)O; 3Pal = N[C@@H](Cc1cccnc1)C(=O)O; Aun = NCCCCCCCCCCC(=O)O; Thp = NC1(C(=O)O)CCOCC1; Me2NCH2CH2 = CN(C)CC*; Sar = CNCC(=O)O
PARAMETER: remaining at 2 h, 1 µM (%)
// note: answer is a bare numeric in %

Please list remaining at 2 h, 1 µM recorded for the compound Cc1cccc2c(C[C@@H]3NC(=O)CCCCCCCCCCNC(=O)CC[C@@H](C(=O)N[C@@H](CC(N)=O)C(=O)N[C@@H](Cc4cccnc4)C(=O)N(C)CC(N)=O)NC(=O)[C@](C)(CCCCN(C)C)NC(=O)[C@H](Cc4ccc5ccccc5c4)NC(=O)[C@H](Cc4ccc(OCCN(C)C)cc4)NC(=O)C4(CCOCC4)NC(=O)[C@H](CCC(N)=O)NC3=O)c[nH]c12 [compound 20] ([Aun][Trp(7-Me)]Q[Thp]Y(Me2NCH2CH2)[2Nal][αMeLys(Me2)]EN[3Pal][Sar]-NH2; lactam N-8)
96

---

EXPERIMENTAL DETAILS: Protease stability in simulated intestinal fluids (FaSSIF) (Table 7)
Format: in vitro ADME
CONDITION: fassif with pancreatin, 240 min, 37° C., read-out: Remaining percentage of peptide compound, FaSSIF 240 (min)
Numbered stars: 1 amine (or outer) side, 2 acyl side, 3 side chain; on linkers, the order of the positions; unused ones are H or OH. Bridge positions count the residues as written; N and C are the ends. Square brackets hold non-standard residues; d marks the D form. Peptide text beside a SMILES is read from it. * marks the point of attachment. Lys(Me,(CH2)4NMe(CH2)5CO) = CN(CCCCCC(=O)[*:3])CCCCN(C)CCCC[C@H](N[*:1])C(=O)[*:2]; Trp(7-Me) = Cc1cccc2c(C[C@H](N)C(=O)O)c[nH]c12; 2Nal = N[C@@H](Cc1ccc2ccccc2c1)C(=O)O; 3Pal = N[C@@H](Cc1cccnc1)C(=O)O; 12Ado = NCCCCCCCCCCCC(=O)O; Thp = NC1(C(=O)O)CCOCC1; Me2NCH2CH2 = CN(C)CC*; Aib = CC(C)(N)C(=O)O; Sar = CNCC(=O)O
PARAMETER: remaining at 4 h, 1 µM (%)
// note: answer is a bare numeric in %

Please list remaining at 4 h, 1 µM recorded for the compound Cc1cccc2c(C[C@@H]3NC(=O)CCCCCCCCCCCNC(=O)CC[C@@H](C(=O)N[C@@H](CC(N)=O)C(=O)N[C@@H](Cc4cccnc4)C(=O)N(C)CC(N)=O)NC(=O)C(C)(C)NC(=O)[C@H](Cc4ccc5ccccc5c4)NC(=O)[C@H](Cc4ccc(OCCN(C)C)cc4)NC(=O)C4(CCOCC4)NC(=O)[C@H](CCC(N)=O)NC3=O)c[nH]c12 [compound 2] ([12Ado][Trp(7-Me)]Q[Thp]Y(Me2NCH2CH2)[2Nal][Aib]EN[3Pal][Sar]-NH2; lactam N-8)
94

Please list remaining at 4 h, 1 µM recorded for the compound Cc1cccc2c(C[C@@H]3NC(=O)CCCCCN(C)CCCCN(C)CCCC[C@@H](C(=O)N[C@@H](CC(N)=O)C(=O)N[C@@H](Cc4cccnc4)C(=O)N(C)CC(N)=O)NC(=O)C(C)(C)NC(=O)[C@H](Cc4ccc5ccccc5c4)NC(=O)[C@H](Cc4ccc(OCCN(C)C)cc4)NC(=O)C4(CCOCC4)NC(=O)[C@H](CCC(N)=O)NC3=O)c[nH]c12 [compound 31] ([Trp(7-Me)]Q[Thp]Y(Me2NCH2CH2)[2Nal][Aib][Lys(Me,(CH2)4NMe(CH2)5CO)]N[3Pal][Sar]-NH2; lactam N-7)
90

---

Tested on: IL-23 induced STAT3 signaling (IL-23 receptor) in HEK-Blue IL-23 cells
EXPERIMENTAL DETAILS: Inhibition of IL-23 induced STAT3 signaling in HEK-Blue IL-23 cells, SEAP reporter (Table 9)
Type: cell-based
CONDITION: human IL23 0.25 ng/ml, overnight, read-out: Inhibition of IL-23 induced pSTAT3 (IC50 nM)
Numbered stars: 1 amine (or outer) side, 2 acyl side, 3 side chain; on linkers, the order of the positions; unused ones are H or OH. Bridge positions count the residues as written; N and C are the ends. Square brackets hold non-standard residues; d marks the D form. Peptide text beside a SMILES is read from it. * marks the point of attachment. Lys(Me,(CH2)4NMe(CH2)5CO) = CN(CCCCCC(=O)[*:3])CCCCN(C)CCCC[C@H](N[*:1])C(=O)[*:2]; Lys(Me,(CH2)4NMe(CH2)4CO) = CN(CCCCC(=O)[*:3])CCCCN(C)CCCC[C@H](N[*:1])C(=O)[*:2]; Trp(7-Me) = Cc1cccc2c(C[C@H](N)C(=O)O)c[nH]c12; Trp(1-Me) = Cn1cc(C[C@H](N)C(=O)O)c2ccccc21; NH(2-(3-pyridyl)ethyl) = c1cncc(CCN*)c1; NH(CH2)9CO = O=C(CCCCCCCCCN[*:1])[*:2]; 2Nal = N[C@@H](Cc1ccc2ccccc2c1)C(=O)O; X1 = O=C(CCCCCCCCCCCCCN[*:1])[*:2]; 3Pal = N[C@@H](Cc1cccnc1)C(=O)O; Thp = NC1(C(=O)O)CCOCC1; Me2NCH2CH2 = CN(C)CC*; Aib = CC(C)(N)C(=O)O; Sar = CNCC(=O)O
PARAMETER: IC50 (nM)
// note: answer is a bare numeric in nM

Please list IC50 recorded for the compound Cc1cccc2c(C[C@@H]3NC(=O)CCCCCCCCCCCCCNC(=O)CC[C@@H](C(=O)N[C@@H](CC(N)=O)C(=O)N[C@@H](Cc4cccnc4)C(=O)N(C)CC(N)=O)NC(=O)C(C)(C)NC(=O)[C@H](Cc4ccc5ccccc5c4)NC(=O)[C@H](Cc4ccc(OCCN(C)C)cc4)NC(=O)C4(CCOCC4)NC(=O)[C@H](CCC(N)=O)NC3=O)c[nH]c12 [compound 1] ([X1][Trp(7-Me)]Q[Thp]Y(Me2NCH2CH2)[2Nal][Aib]EN[3Pal][Sar]-NH2; lactam N-8)
1.14

Please list IC50 recorded for the compound Cc1cccc2c(C[C@@H]3NC(=O)CCCCCCCCCNC(=O)CC[C@@H](C(=O)N[C@@H](CC(N)=O)C(=O)N[C@@H](Cc4cccnc4)C(=O)N(C)CC(N)=O)NC(=O)C(C)(C)NC(=O)[C@H](Cc4ccc5ccccc5c4)NC(=O)[C@H](Cc4ccc(OCCN(C)C)cc4)NC(=O)C4(CCOCC4)NC(=O)[C@H](CCC(N)=O)NC3=O)c[nH]c12 [compound 5] ([NH(CH2)9CO][Trp(7-Me)]Q[Thp]Y(Me2NCH2CH2)[2Nal][Aib]EN[3Pal][Sar]-NH2; lactam N-8)
0.26

Please list IC50 recorded for the compound CN(C)CCOc1ccc(C[C@@H]2NC(=O)C3(CCOCC3)NC(=O)[C@H](CCC(N)=O)NC(=O)[C@H](Cc3cn(C)c4ccccc34)NC(=O)CCCCCN(C)CCCCN(C)CCCC[C@@H](C(=O)NCC(=O)NCCc3cccnc3)NC(=O)C(C)(C)NC(=O)[C@H](Cc3ccc4ccccc4c3)NC2=O)cc1 [compound 22] ([Trp(1-Me)]Q[Thp]Y(Me2NCH2CH2)[2Nal][Aib][Lys(Me,(CH2)4NMe(CH2)5CO)]G-{NH(2-(3-pyridyl)ethyl)}; lactam N-7)
24.8

Please list IC50 recorded for the compound CN(C)CCOc1ccc(C[C@@H]2NC(=O)C3(CCOCC3)NC(=O)[C@H](CCC(N)=O)NC(=O)[C@H](Cc3cn(C)c4ccccc34)NC(=O)CCCCN(C)CCCCN(C)CCCC[C@@H](C(=O)NCC(=O)NCCc3cccnc3)NC(=O)C(C)(C)NC(=O)[C@H](Cc3ccc4ccccc4c3)NC2=O)cc1 [compound 25] ([Trp(1-Me)]Q[Thp]Y(Me2NCH2CH2)[2Nal][Aib][Lys(Me,(CH2)4NMe(CH2)4CO)]G-{NH(2-(3-pyridyl)ethyl)}; lactam N-7)
42.5

Please list IC50 recorded for the compound CC(=O)NCCCC[C@@H]1NC(=O)[C@H](Cc2c[nH]c3c(C)cccc23)NC(=O)CCCCN(C)CCCCN(C)CCCC[C@@H](C(=O)NCC(=O)NCCc2cccnc2)NC(=O)C2(CCOCC2)NC(=O)[C@H](Cc2ccc3ccccc3c2)NC(=O)[C@H](Cc2ccc(OCCN(C)C)cc2)NC(=O)C2(CCOCC2)NC1=O [compound 48] ([Trp(7-Me)]K(Ac)[Thp]Y(Me2NCH2CH2)[2Nal][Thp][Lys(Me,(CH2)4NMe(CH2)4CO)]G-{NH(2-(3-pyridyl)ethyl)}; lactam N-7)
10.4
